molecular target: Sulfhydryl oxidase 1 (Homo sapiens) (UniProt O00391); assay: QSOX1 enzyme inhibitors, confirmation, biochemical, ROS-Glo luminescence, single concentration (AID 1347421); conditions: recombinant hQSOX1, RNase A substrate, ROS-Glo H2O2 luminescence; at 10 µM;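 further: 0% = DMSO wells with enzyme and 100% = wells lacking QSOX1 enzyme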
Sequence (O00391 whole entry, looked up): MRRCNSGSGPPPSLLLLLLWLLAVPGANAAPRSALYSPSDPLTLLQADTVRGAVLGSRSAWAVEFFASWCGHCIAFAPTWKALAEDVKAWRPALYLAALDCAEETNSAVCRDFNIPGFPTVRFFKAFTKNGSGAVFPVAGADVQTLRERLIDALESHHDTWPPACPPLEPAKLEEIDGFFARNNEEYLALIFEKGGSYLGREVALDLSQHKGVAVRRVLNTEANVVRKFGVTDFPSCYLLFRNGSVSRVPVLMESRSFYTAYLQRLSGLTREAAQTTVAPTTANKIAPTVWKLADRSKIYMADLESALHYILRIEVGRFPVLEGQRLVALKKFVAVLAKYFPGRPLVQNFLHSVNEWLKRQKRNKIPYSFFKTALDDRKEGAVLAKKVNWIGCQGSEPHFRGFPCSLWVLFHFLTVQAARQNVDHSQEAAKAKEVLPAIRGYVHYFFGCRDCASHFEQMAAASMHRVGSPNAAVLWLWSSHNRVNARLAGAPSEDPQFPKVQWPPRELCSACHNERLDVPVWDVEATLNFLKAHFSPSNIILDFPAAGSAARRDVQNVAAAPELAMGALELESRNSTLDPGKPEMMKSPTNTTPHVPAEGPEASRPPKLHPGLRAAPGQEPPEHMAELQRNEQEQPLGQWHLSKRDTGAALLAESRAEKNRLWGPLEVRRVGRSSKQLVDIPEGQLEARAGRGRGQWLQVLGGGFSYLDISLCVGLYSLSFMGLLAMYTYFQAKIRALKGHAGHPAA
Over roughly 1,500 compounds, “activity” has its median near 2; the lowest 2% begin near -18. The entries come from a sample that favours the lowest values as a whole. Active and inactive are the calls of the source.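 How the source made its calls: active means inhibition of at least 40% at 10 µM; inconclusive means no clear call, values can overlap the other calls; inactive means the rest.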
Form field: activity (one value per entry).

# example entries with known answers
compound	endpoint.name	reported
Fc1ccc(C2(c3noc(-c4cn[nH]c4)n3)CCOC2)cc1 (stereo unspecified)	activity	2.1%
COc1ccc(C2CC(=O)c3cnc(NC4CC4)nc3C2)cc1 (stereo unspecified)	activity	3.9%
COc1cccc(CN2CCNC(=O)C2CC(=O)NC2CCCCCCC2)c1 (stereo unspecified)	activity	2.4%
O=C1CCCN1CCCNCc1cccc(OCC(O)CN2CCCCCC2)c1 (stereo unspecified)	activity	5.6%
CC(C)OCCNC(=O)c1cc(COc2cccc3cccnc23)on1	activity	2.2%
CN1CCCCCC1C(=O)NCc1cccnc1N1CCN(c2ccccn2)CC1 (stereo unspecified)	activity	-5.2% (inactive)
CN1CCN(C(=O)CCC2CCCN(C(=O)Cc3ccc4c(c3)OCO4)C2)CC1 (stereo unspecified)	activity	0.8%
c1ccc(CNc2ccc(NCc3ccccc3)nn2)cc1	activity	-8.7% (inactive)
CN(C)S(=O)(=O)c1ccc(CCC(=O)N2CCOCC2)cc1	activity	1.9%
CS(=O)(=O)c1cccc(S(=O)(=O)NC2CCCC2)c1	activity	7%

INPUT: Item COc1ccc(C(C)(C)NC(=O)C2CCC(=O)N(Cc3ccccc3F)C2)cc1OC (stereo unspecified) has what recorded activity?
OUTPUT: -0.6% (inactive)

INPUT: Consider the compound shown here: O=C1CCC(C(=O)N2CCC3(C=Cc4ccccc43)CC2)CN1CCc1ccccn1 (stereo unspecified) What is its recorded activity?
OUTPUT: 3.8%

INPUT: For O=C(Nc1cccc(-n2cnnn2)c1)C1CCCN1CCCC(F)(F)F (stereo unspecified) , what is its reported activity?
OUTPUT: -2.9% (inactive)

INPUT: Fill in the blank: the reported activity of Cn1nc(C(=O)N2CCc3ccccc32)c2ccccc2c1=O is ____.
OUTPUT: -5.3% (inactive)

INPUT: Given the entry O=C1N(CC2CC2)CCCC12CCN(Cc1cccc(-n3cccn3)c1)C2 (stereo unspecified) , report its measured activity.
OUTPUT: -0.7% (inactive)

INPUT: I have this compound here, O=C(c1ccc(-c2ccccc2)c(F)c1)C1CCCN(C(=O)CCc2cnccn2)C1 (stereo unspecified) , and I need its recorded activity.
OUTPUT: 9.5%

INPUT: I am curious: what activity value has been reported for Cc1cccc(N2CCN(CC(=O)Nc3ccc(S(N)(=O)=O)cc3)CC2)c1C ?
OUTPUT: -11.2% (inactive)

* * *

Reported activity values follow for various compounds
biological target: Sulfhydryl oxidase 1 (Homo sapiens) (UniProt O00391); experiment: QSOX1 enzyme inhibitors, confirmation, biochemical, ROS-Glo luminescence, single concentration (AID 1347421); conditions: recombinant hQSOX1, RNase A substrate, ROS-Glo H2O2 luminescence; at 10 µM;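 further: 0% = DMSO wells with enzyme and 100% = wells lacking QSOX1 enzyme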
Over roughly 1,500 compounds, “activity” has its median near 2; the lowest 2% begin near -18. The entries come from a sample that favours the lowest values as a whole. The source made the active and inactive calls.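 Rule for the calls: active = inhibition of at least 40% at 10 µM; inconclusive = no clear call, values can overlap the other calls; inactive = the rest.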

Look over these answered cases.
compound	endpoint.name	reported
CC(C)CCCC1CN(C2CCN(Cc3ccccn3)CC2)CCO1 (centres undefined)	activity	5.9%
O=C(CCC1CCCN(C/C=C/c2ccc(F)cc2)C1)N1CCCC1 (centres undefined)	activity	-1.2% (inactive)
CC(C)(C)NC(=O)CN1C(=O)CCC1=O	activity	-0.4% (inactive)
Cc1nc(SCC(=O)N2CCN(c3ccccc3)CC2)nc2c1CCCC2	activity	-19.5% (inactive)
Cc1nonc1CC(=O)N1CCC(CCC(=O)N2CCN(c3ccccc3)CC2)CC1	activity	11.2%

INPUT: Look up activity: c1ccc(-c2nn3c(-c4cccs4)nnc3s2)nc1
OUTPUT: -20.4% (inactive)

INPUT: Recorded activity of COc1ccc(C2CC(=O)c3cn[nH]c3C2)cc1 (centres undefined) , please.
OUTPUT: -17.7% (inactive)

INPUT: What measured activity goes with O=C(NCC(O)CO)c1ccc(OC2CCN(CCc3ccccc3)CC2)cc1 (centres undefined) ?
OUTPUT: -0.6% (inactive)

INPUT: Which activity value belongs to NC(=O)COc1ccc(S(=O)(=O)N2CCOCC2)cc1 ?
OUTPUT: -13.3% (inactive)

INPUT: // query activity value for entry CS(=O)(=O)c1ncc(CO)n1Cc1ccccc1
OUTPUT: -4.5% (inactive)

INPUT: For the compound Cc1cc(Br)c(S(=O)(=O)NCc2ccncc2)cc1C , what activity is on record?
OUTPUT: 3.4%

src = PubChem BioAssay AID1347421
